# protocol notes: soluble on expression in E. coli; label from the status in PepcDB or PDB records
measurement name: soluble on expression in E. coli

residues=MSRLSSLLILVCIGALLVETFAAPDEPIIVRSKRQQCRCVKNPNGGLTCSCAKGPADGSSSSIGSGVQYDAPQSADIANQLTAMSQQTTGMSGARCGCIQIVIQGAPQYNCQCGDQSGNPLPTTTTMAPTTSSTTTTTTTTTQAPTTTSTTTTQSPVSYPQVPTQTQGSNGACNCIMISITSPQTAQYQCQCAQPQQQQQQQVQYDTYEYAPVQTTPTPMPTTQVPTTQAPTTQAPTMPTSSSPVQYADTAATQYPLTTTCVMYVNVPTTACSCLPQYDQCAQNVCCLKSKFRSYKKAEETQPSTLDVLMNVLQTIKTKLE result="not soluble"
residues=MAHHHHHHMNTFNYIRSPTGVHEVDGPPNDCVSTVRFSPSGCPYLLLGAASWDKTCRVWQVIHQPNAINIRSQPMTFAVSDAPILDMSFSADGRVFWGGCSKTATMWNLTTNQKIIVGSHDLPVSCIAHVSSNTGTEMLVTGSWDGRLRFWDLRQPMPIKEEILGEPVFGLDAQRSFPMAACVTGRKVHIFNLQTMMKTNELKPPPLLKFNLGCVACSPQKDGVVVGSSEGRLSFIPLQAEVGCTFKAHVLVEDNVLYMHQTNFCVISPRVPHMISGGGDGRIGCWDYKKRSIVGYGESETRLENRNKSISAGDISADGSLLAFARSYDWAMGKTGCIPNEPHSIHIRSAEWKSALS result="not soluble"
residues=MATTKRVLYVGGLAEEVDDKVLHAAFIPFGDITDIQIPLDYETEKHRGFAFVEFELAEDAAAAIDNMNESELFGRTIRVNLAKPMRIKE result=soluble
residues=MQREDILGEALKLLETQGIADTTLEMVAERVNRPLDTLQRFWPDKEAILYDALRYLSQQVDIWRRQLLLDETLSAEQKLLARYSALSECVSNNRYPGCLFIAACTFYPDPTHPIHQLANQQKRAAHDFTHELLTTLEIDDPAMVARQMELVLEGCLSRMLVNRSQADVDTAQRLAEDILRFAQCRQGGALT result=soluble
residues=RVSLLKRKYKRVTTIAERTRRAQSETDRRNYTAASKARTQAQRSSKPQRTRASSRSRRDNSVTVEELMRRRQEQQQTGAKSFAPRPTRTAAQREAAERDLTRRLVNPDPEIHRTRTFDDDLYS result="not soluble"
residues=VGTRSKSRTRQLKQSNGCTATTSGASDRRRRARRRTAPAWLREDEWLRHHLPHPPRQLSRCLHRRRRSACHHRYSRRTPKGGLPMTSSLVPISEARAHLSRLVRESADDDVVLMNHGRPAAILISAERYESLMEELEDLRDRLSVHEREHVTMPLDKLGAELGVDIGRV result="not soluble"
residues=MMGCMMIYNPKQLANHLKLIRTKHNLTQTELAKKVGVKQSTLSSFENHPETTQLQTLFKILHALEVHCIIQEQVPASHEDNLDDEAW result="not soluble"
residues=MTDSDGKIVWETGYQVWGNTIQEKDHGGVEQNLRYQGQYLDRETGLHYNLHRYYDPDVGRFMVTDPIGLRGGLNLYSYAPNPLKYADPLGLTPCAVSNQKANRLLDSSETKVTVRSRSDAEQLFMDRYLGHNYKNMTGESGPSTKNLMEYLTENKTKAGSYHWDDIKDPSVTKPSYRVSGHGPGNPDGDLPHLQVHQHGGSVRHIFFPWETLEHHHHHH result="not soluble"
residues=MGSDKIHHHHHHMPAIAFIDISGSPFQAGQALGRFGASAVRDHLLHTDAWRSVMRWRGTEQAALMAAQVQARFPRIWDELKGLADGLGLPLEDTFLWNCRGDVWAMSPDGCTTVQVPGAHRRRISHNEDGDPGFSGHCAIAQCHIAGSPGFASFVYPGSLPGHTFAATELGLAMTVNNLRYRNTTAGVPRMVLTRAVLDAPDLDKALAVLRDNPHAGGFHLTLGHCRSTALLSVEFSAYGCSVLDITQTSMHANHAIHPQMRDHPQIVTGSSGHRQMRGDTVIADAARDGREIDPLELLADTAHPSFPIYRDDPHDSDGENTQATADMRVGPTCIEWEVYEQPGTAPRYRMINGHTREEDATDAGARPDVQSRH result="not soluble"
residues=MAKGTKYVSKVPDEHGFIEWSTEENLIWQELFTRQIACIKDKACDEYHEGLAKLNLPTDRIPQLDEVSKVLKVSTGWECYPVPALIGFGEFFRLLSEKKFPVATFIRSREEMDYLQEPDIFHEIFGHCPLLTNSSFANYTEAYGKMGLNATKEQRVFLARLYWFTIEFGLLDTPKGLRIYGGGVLSSPGETDYAMNNTDVDRKPFDILDVLRTPYRIDIMQPIYYMLTKVSDLDEIRKFEVDDIMELVAQAEALGLHEAKFPVKKASLEHHHHHH result=soluble
residues=MGGLYVSNFYGIFYSSNSESSTTLVDFCKYNAEIVEQTIFLEFVEFSNESIIFLKNLYSKMVNNSNFNIKKKFFHRKNSVTVYSNFLNFSKNLVKKFGV result="not soluble"
residues=MSGLPCNERMDCTQCPKAVENSIHYTHNKKGFHLPPHKCETNILFFLLKGQILINSEEYAGTIINSGEFVLQAIASKVEILAMTDSEGILYTFDDPKAFCYDRYTYILKNVPPPLISEPLKIKPEIKLFLEGVASYLNADKICKELLEFKRKELYYLLAHYYTDYELSPVVHSLSQYTSSFEYFILKHHKQIKSVEEFAQLGGYSVTTFRRIFKAIFNEPAYEWMMKQRKESILYQLRYTDASISEICFGHGFESLSHFSNFCKKSFGDSPRNIRKKEKEEISPNT result="not soluble"
residues=MSLAEQATKSVLFVCLGNICRSPIAEAVFRKLVTDQNISENWVIDSGAVSDWNVGRSPDPRAVSCLRNHGIHTAHKARQITKEDFATFDYILCMDESNLRDLNRKSNQVKTCKAKIELLGSYDPQKQLIIEDPYYGNDSDFETVYQQCVRCCRAFLEKAHEGHHHHHH result=soluble

The reported numbers originate from the DeepSol protein solubility set.
